- System: DU-145
- Condition Notes: human, 4 h

{"columns": ["Molecule", "CC50"],
 "data": [
  ["CC1(C)CCC2=C(O1)c1ccccc1C(=O)C2=O [β-lapachone]", "1.21 µM"]
]}

====

- Assay Protocol: Pharmacokinetics after intravenous infusion in rats, HPBCD formulation
- Condition Notes: male, Sprague-Dawley, rat, plasma, iv, 10 mg/kg, Vdss, 1-Hour Infusion
Readout Type: Vd (L/kg)

{"columns": ["Chemical String", "Value"],
 "data": [
  ["CC1(C)CCC2=C(O1)c1ccccc1C(=O)C2=O", 21]
]}

====

- Assay Protocol: Pharmacokinetics after intravenous infusion in rats, HPBCD formulation
- Condition Notes: male, Sprague-Dawley, rat, plasma, iv, 5 mg/kg, AUC, 10-Min. Infusion
Readout Type: AUC (ng·h/mL)

{"columns": ["Chemical String", "Value"],
 "data": [
  ["CC1(C)CCC2=C(O1)c1ccccc1C(=O)C2=O", 1200]
]}

====

- Assay Protocol: Pharmacokinetic data from toxicology study in dogs, one-hour intravenous infusion
- Type: in vivo
- Condition Notes: both sexes, dog, plasma, intravenous; across the dose range; read-out: terminal half-life (converted)

{"columns": ["Chemical String", "half-life"],
 "data": [
  ["CC1(C)CCC2=C(O1)c1ccccc1C(=O)C2=O", "~16 h"]
]}

====

- Assay Protocol: Pharmacokinetics after intravenous infusion in rats, HPBCD formulation
- Condition Notes: male, Sprague-Dawley, rat, plasma, iv, 10 mg/kg, T1/2, 1-Hour Infusion

{"columns": ["Compound", "half-life (h)"],
 "data": [
  ["CC1(C)CCC2=C(O1)c1ccccc1C(=O)C2=O [β-lapachone]", 4.9]
]}

====

- Assay Protocol: Pharmacokinetics after intravenous infusion in rats, HPBCD formulation
- Condition Notes: male, Sprague-Dawley, rat, plasma, iv, 5 mg/kg, Vdss, 1-Hour Infusion

{"columns": ["Chemical String", "Vd / L/kg"],
 "data": [
  ["CC1(C)CCC2=C(O1)c1ccccc1C(=O)C2=O", 19.6]
]}

====

- Assay Protocol: Pharmacokinetic data from toxicology study in dogs, one-hour intravenous infusion
- Assay type: in vivo
- Condition Notes: both sexes, dog, plasma, iv; 15 mg/kg, 60 min infusion; read-out: T1/2

{"columns": ["Chemical String", "half-life"],
 "data": [
  ["CC1(C)CCC2=C(O1)c1ccccc1C(=O)C2=O", "~16 h"]
]}

====

- System: SK-MEL-28
- Condition Notes: human, 4 h
Readout Type: CC50 (nM)

{"columns": ["Compound", "Target System", "Uom", "Value"],
 "data": [
  ["CC1(C)CCC2=C(O1)c1ccccc1C(=O)C2=O [β-lapachone]", "SK-MEL-28", "nM", 2630]
]}

====

- Assay Protocol: Pharmacokinetics after intravenous infusion in rats, HPBCD formulation
- Condition Notes: male, Sprague-Dawley, rat, plasma, iv, 15 mg/kg, T1/2, 1-Hour Infusion

{"columns": ["Compound", "half-life [h]"],
 "data": [
  ["CC1(C)CCC2=C(O1)c1ccccc1C(=O)C2=O [β-lapachone]", 7]
]}

====

- Assay Protocol: Pharmacokinetics after intravenous infusion in rats, HPBCD formulation
- Condition Notes: male, Sprague-Dawley, rat, plasma, iv, 15 mg/kg, Vdss, 1-Hour Infusion

{"columns": ["Compound", "Uom", "Vd"],
 "data": [
  ["CC1(C)CCC2=C(O1)c1ccccc1C(=O)C2=O [β-lapachone]", "L/kg", 26.4]
]}
